Provide the reported Concentration of total inhibition of hatching viability (0% of hatched larvae) of each item.
Test system: Paracentrotus lividus embryos
Assay: Embryotoxicity test: percentage of hatched sea urchin larvae after 24 hours
Type: in vivo
Conditions: 24 hours

**Query** // fetch Concentration of total inhibition of hatching viability (0% of hatched larvae) given entry CC/C=C/C=C/C=O [heptadienal, 2-trans,4-trans-heptadienal]
**Result** 11.36 µM

**Query** // fetch Concentration of total inhibition of hatching viability (0% of hatched larvae) given entry CC/C=C\C/C=C\C/C=C\C/C=C\C/C=C\CCCC(=O)OC [EPA methyl-ester]
**Result** 158 µM

**Query** // fetch Concentration of total inhibition of hatching viability (0% of hatched larvae) given entry CCC/C=C/C=C/C=O [octadienal, 2-trans,4-trans–octadienal]
**Result** 8.08 µM

**Query** // fetch Concentration of total inhibition of hatching viability (0% of hatched larvae) given entry CCCCC/C=C/C=C/C=O [decadienal, 2-trans,4-trans-decadienal]
**Result** 3.95 µM
